- experimental.system: Serine/threonine-protein kinase Nek1 (Homo sapiens) (UniProt Q96PY6)
- Sequence (Q96PY6 whole entry): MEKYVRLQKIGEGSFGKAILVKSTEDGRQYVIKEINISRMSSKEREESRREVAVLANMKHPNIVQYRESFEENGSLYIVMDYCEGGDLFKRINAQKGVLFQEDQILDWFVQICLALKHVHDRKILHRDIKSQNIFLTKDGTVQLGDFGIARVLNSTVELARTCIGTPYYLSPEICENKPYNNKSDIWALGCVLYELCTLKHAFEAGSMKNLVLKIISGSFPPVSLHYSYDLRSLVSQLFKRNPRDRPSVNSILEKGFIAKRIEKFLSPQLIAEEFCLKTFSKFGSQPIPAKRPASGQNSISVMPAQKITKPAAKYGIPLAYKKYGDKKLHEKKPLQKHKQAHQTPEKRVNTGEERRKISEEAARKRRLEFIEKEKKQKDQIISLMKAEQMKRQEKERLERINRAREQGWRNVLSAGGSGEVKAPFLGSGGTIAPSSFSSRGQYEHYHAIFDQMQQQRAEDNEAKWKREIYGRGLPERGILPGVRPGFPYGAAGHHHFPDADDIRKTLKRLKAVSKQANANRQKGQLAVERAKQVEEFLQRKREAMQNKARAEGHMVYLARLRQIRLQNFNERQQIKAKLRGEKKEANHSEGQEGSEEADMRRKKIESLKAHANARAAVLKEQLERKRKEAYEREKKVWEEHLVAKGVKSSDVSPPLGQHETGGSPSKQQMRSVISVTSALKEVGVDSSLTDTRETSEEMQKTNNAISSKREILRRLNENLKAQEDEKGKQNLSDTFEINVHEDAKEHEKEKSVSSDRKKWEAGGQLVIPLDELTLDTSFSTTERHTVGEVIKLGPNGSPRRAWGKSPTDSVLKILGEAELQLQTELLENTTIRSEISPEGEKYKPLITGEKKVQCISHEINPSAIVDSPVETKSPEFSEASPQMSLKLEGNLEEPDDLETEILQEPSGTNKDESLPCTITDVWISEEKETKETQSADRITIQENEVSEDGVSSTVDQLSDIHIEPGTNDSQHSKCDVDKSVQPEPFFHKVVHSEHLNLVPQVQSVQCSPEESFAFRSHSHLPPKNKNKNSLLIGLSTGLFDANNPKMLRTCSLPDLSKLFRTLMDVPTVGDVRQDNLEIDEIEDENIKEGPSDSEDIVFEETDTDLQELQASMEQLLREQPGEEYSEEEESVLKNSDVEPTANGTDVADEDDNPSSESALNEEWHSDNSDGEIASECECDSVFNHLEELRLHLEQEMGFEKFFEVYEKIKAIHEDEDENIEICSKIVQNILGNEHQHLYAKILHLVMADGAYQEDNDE
- run.parameters: at 1 µM
- Description: GSK_PKIS: NEK1 mean inhibition at 1 uM [Nanosyn]
readout.name: inhibition (%)
Supply the numeric figure in %, leaving out any unit text.

The examples below pair each entry with its known result.
molecule	experimental.system	readout.name	val
COc1ccc(-c2ccncc2)cc1C(N)=O	Serine/threonine-protein kinase Nek1 (Homo sapiens) (UniProt Q96PY6)	inhibition	6.47
COC(=O)Nc1nc2cc(Oc3cccc(NC(=O)Nc4cc(C(F)(F)F)ccc4F)c3)ccc2[nH]1	Serine/threonine-protein kinase Nek1 (Homo sapiens) (UniProt Q96PY6)	inhibition	2.32
CNC(=O)c1cncc(/C=C/c2c(Cl)cccc2Cl)c1	Serine/threonine-protein kinase Nek1 (Homo sapiens) (UniProt Q96PY6)	inhibition	1.83
Nc1nc(-c2ccc3c(c2)C(=Cc2cc(Br)c(O)c(Br)c2)C(=O)N3)cs1	Serine/threonine-protein kinase Nek1 (Homo sapiens) (UniProt Q96PY6)	inhibition	2.14
NC(=O)c1cccc(Nc2nccc(Nc3cccc4[nH]ncc34)n2)c1	Serine/threonine-protein kinase Nek1 (Homo sapiens) (UniProt Q96PY6)	inhibition	8.86

Request: Recall the recorded inhibition for O=C(Nc1n[nH]c2nc(-c3ccco3)c(Br)cc12)C1CC1 with Serine/threonine-protein kinase Nek1 (Homo sapiens) (UniProt Q96PY6) and state it.
Response: 1.85

###

- experimental.system: Serine/threonine-protein kinase Sgk1 (Homo sapiens);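 also: mean percent inhibition of SGK1, from the GSK PKIS screening panel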
- run.parameters: at 1 µM
Overview of recorded inhibition for various molecules
Supply the numeric figure in %, leaving out any unit text.

The examples below pair each entry with its known result.
Cc1cc(O)cc(C)c1/C=C/c1cncc(-c2nn[nH]n2)c1 2.09
CS(=O)(=O)Nc1ccc(N/C=C2\C(=O)Nc3ccccc32)cc1 12.3
CCn1c(-c2nonc2N)nc2cnc(Oc3cccc(NC(=O)c4ccc(OCCN5CCOCC5)cc4)c3)cc21 34.7
COc1cc2ncn(-c3cc(O[C@@H](C)c4ccccc4Cl)c(C(N)=O)s3)c2cc1OC 4.72
Cc1ccc(NC(=O)c2ccnc(N3CCCC3)c2)cc1-c1ccc(C(=O)NCC2CC2)cc1 4.14
COC(=O)Nc1nc2cc(Oc3ccc(NC(=O)Nc4cccc(C(=O)O)c4)cc3)ccc2[nH]1 1.96
CC(C)=Cc1cccc2c1/C(=N/Nc1ccc(S(N)(=O)=O)cc1)C(=O)N2 5.74
CCn1c(-c2nonc2N)nc2cncc(C(=O)N3CC[C@H](N)C3)c21 29.4

Request: # input molecule: NC(=O)c1cccc(Nc2nccc(Nc3cccc4[nH]ncc34)n2)c1 ; wanted: its inhibition
Response: 1.71

Request: Also, Fc1cccc(COc2ccc(Nc3ncnc4cc(-c5ccc[nH]5)sc34)cc2Cl)c1 please.
Response: 3.96

###

- experimental.system: Mitogen-activated protein kinase 13 (Homo sapiens);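 also: mean inhibition of p38delta, screened as part of the GSK PKIS kinase inhibitor set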
- Sequence (whole entry): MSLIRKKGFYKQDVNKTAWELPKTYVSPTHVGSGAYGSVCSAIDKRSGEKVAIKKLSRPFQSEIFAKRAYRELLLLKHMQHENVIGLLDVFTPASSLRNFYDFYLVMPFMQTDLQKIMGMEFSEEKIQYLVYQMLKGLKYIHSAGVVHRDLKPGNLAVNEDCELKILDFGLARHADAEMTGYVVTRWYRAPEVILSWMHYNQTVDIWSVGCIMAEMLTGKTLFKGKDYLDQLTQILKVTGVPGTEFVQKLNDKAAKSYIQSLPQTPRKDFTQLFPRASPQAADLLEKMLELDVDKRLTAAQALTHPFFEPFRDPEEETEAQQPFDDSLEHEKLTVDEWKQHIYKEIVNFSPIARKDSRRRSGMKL
- run.parameters: at 1 µM
Overview of recorded inhibition for various molecules

Request: Recall the recorded inhibition for Cc1ccc(NC(=O)c2ccnc(N3CCCC3)c2)cc1-c1ccc(C(=O)NCC2CC2)cc1 with Mitogen-activated protein kinase 13 (Homo sapiens) and state it.
Response: 5.79%

###

- experimental.system: Serine/threonine-protein kinase Chk1 (Homo sapiens);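 also: mean inhibition of CHEK1, part of the GSK PKIS profiling set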
- Sequence (whole entry): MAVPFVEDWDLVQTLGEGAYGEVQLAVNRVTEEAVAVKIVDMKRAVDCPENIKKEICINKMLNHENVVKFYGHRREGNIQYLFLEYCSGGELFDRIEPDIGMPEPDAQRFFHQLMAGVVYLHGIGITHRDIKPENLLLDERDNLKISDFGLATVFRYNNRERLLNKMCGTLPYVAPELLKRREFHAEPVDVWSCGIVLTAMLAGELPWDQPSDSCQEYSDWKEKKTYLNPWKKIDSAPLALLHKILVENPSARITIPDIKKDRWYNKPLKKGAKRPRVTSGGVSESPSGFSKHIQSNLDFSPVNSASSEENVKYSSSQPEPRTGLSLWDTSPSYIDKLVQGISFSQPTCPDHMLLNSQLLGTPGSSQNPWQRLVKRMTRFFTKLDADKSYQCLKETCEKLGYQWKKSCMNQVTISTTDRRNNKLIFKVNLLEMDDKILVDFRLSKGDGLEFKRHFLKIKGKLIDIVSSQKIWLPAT
- run.parameters: at 1 µM
readout.name: inhibition (%)
Supply the numeric figure in %, leaving out any unit text.

The examples below pair each entry with its known result.
c1cnn2ncc(-c3ccnc(Nc4ccc5c(c4)OCCO5)n3)c2c1 6.81
CS(=O)(=O)CCNCc1ccc(-c2ccc3ncnc(Nc4ccc(OCc5ccccc5)c(Cl)c4)c3c2)o1 -6.9
Nc1ncnc2occ(-c3ccc(NC(=O)Nc4cc(C(F)(F)F)cc(C(F)(F)F)c4)cc3)c12 5.4
Cc1ccc(NC(=O)c2ccnc(N3CCCC3)c2)cc1-c1ccc(C(=O)NCC2CC2)cc1 7.14

# context switch: different compound, same inhibition
Request: # input compound: CCn1c(-c2nonc2N)nc2cncc(C(=O)N3CCNCC3)c21 ; wanted: its inhibition
Response: 13.8

###

Overview of recorded inhibition for various compounds
- experimental.system: Serine/threonine-protein kinase pim-1 (Homo sapiens) (UniProt P11309);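 also: reported figures are mean percent inhibition of PIM1 kinase activity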
- Sequence (P11309 whole entry, looked up): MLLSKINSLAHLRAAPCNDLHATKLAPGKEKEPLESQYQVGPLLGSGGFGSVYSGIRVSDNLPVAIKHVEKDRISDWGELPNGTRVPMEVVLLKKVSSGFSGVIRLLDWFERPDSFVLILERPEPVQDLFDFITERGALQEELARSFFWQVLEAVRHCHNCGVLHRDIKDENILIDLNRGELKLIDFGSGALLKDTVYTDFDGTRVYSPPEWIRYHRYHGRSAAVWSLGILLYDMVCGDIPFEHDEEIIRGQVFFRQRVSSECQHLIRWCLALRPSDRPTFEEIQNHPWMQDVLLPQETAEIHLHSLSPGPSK
- run.parameters: at 1 µM
Value and unit, in that order.

CCn1c(-c2nonc2N)nc2c(N3CCCC3)nccc21 1.03%
CS(=O)(=O)CCNCc1nc(-c2ccc3ncnc(Nc4ccc(F)c(Cl)c4)c3c2)cs1 9.19%
Nc1nc(-c2ccc3c(c2)C(=Cc2cc(Br)c(O)c(Br)c2)C(=O)N3)cs1 25.6%
NC(=O)c1ccc(-c2nc(-c3ccccn3)c(-c3ccc4c(c3)OCO4)[nH]2)cc1 0.92%

Request: # input compound: Nc1ncnc2occ(-c3ccc(NC(=O)Nc4cccc(C(F)(F)F)c4)cc3)c12 ; wanted: its inhibition
Response: 2.28%

Request: Also, CN(C)c1cc2c(Nc3ccc4nc(Cc5ccccc5)[nH]c4c3)ncnc2cn1 please.
Response: 3.18%

Request: Also, CCn1c(-c2nonc2N)nc2c(C#CC(C)(C)O)nc(CN3CCCC3)cc21 please.
Response: -0.73%

Request: Also, COc1ccc(COc2ccc(Cc3cnc(N)nc3N)cc2OC)cc1 please.
Response: 0.49%

Request: Also, COC(=O)Nc1nc2cc(Oc3cccc(NC(=O)Nc4cc(C(F)(F)F)ccc4F)c3)ccc2[nH]1 please.
Response: 0.39%

Request: Also, Nc1nc(-c2ccccn2)c(-c2ccc3ncccc3n2)s1 please.
Response: 2.21%

###

- experimental.system: Serine/threonine-protein kinase SIK1 (Homo sapiens);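 also: reported as mean inhibition, part of the GSK PKIS screen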
- run.parameters: at 0.1 µM
readout.name: inhibition
Value and unit, in that order.

The examples below pair each entry with its known result.
compound	inhibition
CCc1cccc(NC(=O)Nc2ccc(Oc3ccc4nc(NC(=O)OC)[nH]c4c3)cc2)c1	2.06%
N#Cc1c(NC(=O)c2cccc3ccccc23)sc2c1CCCC2	7.26%
Fc1cccc(COc2ccc(Nc3ncnc4sc(-c5cccs5)cc34)cc2Cl)c1	0.72%
COC(=O)Nc1nc2cc(Oc3ccc(NC(=O)Nc4cccc(C(=O)O)c4)cc3)ccc2[nH]1	3.75%
CS(=O)(=O)CCNCc1ccc(-c2ccc3ncnc(Nc4ccc(OCc5ccccc5)c(Cl)c4)c3c2)o1	1.53%

Request: Recall the recorded inhibition for CC(=O)Nc1cccc(C#Cc2cncnc2Nc2ccc(OCc3cccc(F)c3)c(Cl)c2)n1 with Serine/threonine-protein kinase SIK1 (Homo sapiens) and state it.
Response: -2.62%

Request: Also, CCCN1CCC=C(c2ccc(Nc3nc(Nc4ccccc4C(N)=O)c4cc[nH]c4n3)c(C)c2)C1 please.
Response: 5.62%

Request: Also, Cc1cccc(-c2n[nH]cc2-c2ccc3ncccc3n2)n1 please.
Response: -0.73%

Request: Also, NC(=O)c1cccc(Nc2nccc(Nc3cccc4[nH]ncc34)n2)c1 please.
Response: 14.8%

Request: Also, CC1=C(C(=O)Nc2ccc3[nH]ncc3c2)C(c2ccc(Cl)c(Cl)c2)CC(=O)N1 (stereo not given) please.
Response: 6.5%

###

Overview of recorded inhibition for various compounds
- Tested on: Tyrosine-protein kinase ABL1 (Homo sapiens), P00519 [M351T]
- run.parameters: at 1 µM
Supply the numeric figure in %, leaving out any unit text.

The examples below pair each entry with its known result.
compound	readout.units	val
Cc1ccc(NC(=O)c2ccnc(N3CCCC3)c2)cc1-c1ccc(C(=O)NCC2CC2)cc1	%	9.12
COc1cc2ncn(-c3cc(O[C@H](C)c4ccccc4Cl)c(C(N)=O)s3)c2cc1OC	%	48.3
Cn1cc(C=C2C(=O)Nc3cccnc32)c2ccccc21	%	35.9
CN1CCC(C(=O)Nc2n[nH]c3nnc(-c4ccccc4)cc23)CC1	%	1.61
Cc1ccc(C(=O)NC2CCCCC2)cc1-c1ccc(C(=O)NCC2CC2)cc1	%	2.26
COc1cc(C)c(NC(=O)CN(C)C)cc1Nc1nc(Nc2cccc(F)c2C(N)=O)c2cc[nH]c2n1	%	-1.18
Cc1cccc(-c2n[nH]cc2-c2ccc3ncccc3n2)n1	%	35.3
N#Cc1c(NC(=O)c2cccc3ccccc23)sc2c1CCCC2	%	3.56

Request: # input compound: COc1ccc2cc(-c3c(-c4ccncc4)nc(-c4ccc([S+](C)[O-])cc4)n3C)ccc2c1 (stereo not given) ; wanted: its inhibition
Response: 2.54

Request: Also, O=C1NC(=O)C(c2ccc(Cl)cc2)=C1Nc1ccc(Cl)c(C(=O)O)c1 please.
Response: 4.53

Provenance of the data: ChEMBL document CHEMBL1961873
